Entries and their measured melting point follow.

Please review the following examples before continuing.
{"chemical smiles": "Cc1oc(-c2ccccc2)nc1COc1ccc(CON=C(CCCCC(N)=O)c2ccccc2)cc1", "melting point": "95 to 96 °C"}
{"chemical smiles": "O=S(=O)(c1ccccc1)n1nc(-c2ccncc2)nc1-c1ccncc1", "melting point": "210 to 212 °C"}
{"chemical smiles": "CCOC(=O)c1[nH]c2cc(Cl)cc(Cl)c2c1NCC(=O)c1ccccc1F", "melting point": "> 290 °C"}

Request: What does the record list as melting point for COc1ccc2c(c1)CNc1cc(Cl)ccc1O2 ?
Result: 111 to 113 °C

Source: a melting point compilation (Tetko et al.; mined from patent text by program, amines drawn as free bases though some values may be those of a salt)
